System: HCT-116
Experiment: Cellular proliferation assay (Alamar blue), HCT-116
Format: cell-based
Details: Homo sapiens, 10% FCS, 72 hours with compound, Alamar blue 4 h
readout: IC50

Examples from the recorded data:
1. O=C1NCCOc2cccc(c2)-c2ccnc(n2)Nc2ccc(N3CCOCC3)c(c2)CN2CCC1CC2    9.12 µM
2. O=C1NCCCOc2cccc(c2)-c2ccnc(n2)Nc2ccc(N3CCOCC3)c(c2)CN[C@H]1CO    4.37 µM
3. COc1ccc2cc1CN(C)CCNC(=O)CN1CCN(CC1)Cc1cc(NCCc3ccccc3)cc(c1)Nc1nccc-2n1    3.09 µM
4. COc1cc2cc(c1)Nc1nccc(n1)-c1ccc(cc1)CN(C)CCCNC(=O)[C@@H]1CCCN1C2    > 10 µM
5. COc1ccc2cc1CN(C)CCNC(=O)CN1CCN(CC1)Cc1cc(cc(NC(C)C)c1)Nc1nccc-2n1    > 10 µM
6. COc1cc2cc(c1)Nc1nccc(n1)-c1ccc(cc1)CN(C)CCCNC(=O)CN1CCN(CC1)C2    1.95 µM

Now look at this one.
Problem: Report IC50, nothing else, for this compound: CN1CCCNC(=O)C2CCN(CC2)Cc2cccc(c2)Nc2nccc(n2)-c2ccc(cc2)C1
Result: > 10 µM

###

Target: PLK4 (h) (Homo sapiens, UniProt O00444)
Sequence (O00444 whole entry): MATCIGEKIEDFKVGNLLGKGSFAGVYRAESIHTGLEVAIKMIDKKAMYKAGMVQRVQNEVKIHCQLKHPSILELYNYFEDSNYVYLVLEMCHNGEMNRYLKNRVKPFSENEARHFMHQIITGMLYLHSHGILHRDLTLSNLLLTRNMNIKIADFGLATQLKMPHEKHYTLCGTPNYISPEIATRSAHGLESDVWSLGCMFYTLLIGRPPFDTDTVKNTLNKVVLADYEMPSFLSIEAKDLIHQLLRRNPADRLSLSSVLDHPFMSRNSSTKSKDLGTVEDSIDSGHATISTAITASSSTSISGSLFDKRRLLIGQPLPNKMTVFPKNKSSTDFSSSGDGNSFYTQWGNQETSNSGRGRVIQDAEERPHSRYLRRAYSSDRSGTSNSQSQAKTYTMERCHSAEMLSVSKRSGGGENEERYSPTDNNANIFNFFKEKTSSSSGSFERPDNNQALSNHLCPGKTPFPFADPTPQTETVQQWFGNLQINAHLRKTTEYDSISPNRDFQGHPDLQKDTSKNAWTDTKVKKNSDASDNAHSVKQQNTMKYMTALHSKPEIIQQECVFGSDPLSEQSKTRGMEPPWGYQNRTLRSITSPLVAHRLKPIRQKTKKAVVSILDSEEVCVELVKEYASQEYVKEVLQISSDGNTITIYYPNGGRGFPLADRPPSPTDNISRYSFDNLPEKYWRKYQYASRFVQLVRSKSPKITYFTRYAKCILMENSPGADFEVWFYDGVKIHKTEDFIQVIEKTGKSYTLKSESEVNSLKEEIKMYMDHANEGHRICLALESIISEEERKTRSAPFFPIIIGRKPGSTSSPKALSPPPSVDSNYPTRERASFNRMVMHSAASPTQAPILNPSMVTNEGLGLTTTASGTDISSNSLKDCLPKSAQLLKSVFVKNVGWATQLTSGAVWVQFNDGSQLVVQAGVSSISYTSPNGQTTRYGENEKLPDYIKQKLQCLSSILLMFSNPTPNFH
Experiment: PLK-4 human kinase inhibition, scintillation proximity assay (SPA)
Assay type: biochemical
Settings: read-out: PLK4 pIC50 (converted)
readout: IC50
State the value with its unit after it.

Examples from the recorded data:
1) O=C1NCCNCc2ccc(cc2)-c2ccnc(n2)Nc2ccc(N3CCOCC3)c(c2)CN2CCC1CC2 [Compound 71]    1.7 µM
2) COc1ccc2cc1CN(C)CCNC(=O)C1CCN(CC1)Cc1cc(Br)cc(c1)Nc1nccc-2n1 [Compound 79]    5.25 µM
3) CN(C)CCNC(=O)c1cc2cc(c1)Nc1nccc(n1)-c1cccc(c1)CNC(=O)[C@@H]1CCCN1C2 [Compound 39]    0.282 µM

Now look at this one.
Problem: Report IC50, nothing else, for this compound: COc1ccc2cc1CN(C)CCCNC(=O)[C@@H]1CCCN1Cc1cc(Br)cc(c1)Nc1nccc-2n1 [Compound 170]
Result: 3.89 µM

###

Target: UniProtKB P49841
Sequence (P49841 whole entry): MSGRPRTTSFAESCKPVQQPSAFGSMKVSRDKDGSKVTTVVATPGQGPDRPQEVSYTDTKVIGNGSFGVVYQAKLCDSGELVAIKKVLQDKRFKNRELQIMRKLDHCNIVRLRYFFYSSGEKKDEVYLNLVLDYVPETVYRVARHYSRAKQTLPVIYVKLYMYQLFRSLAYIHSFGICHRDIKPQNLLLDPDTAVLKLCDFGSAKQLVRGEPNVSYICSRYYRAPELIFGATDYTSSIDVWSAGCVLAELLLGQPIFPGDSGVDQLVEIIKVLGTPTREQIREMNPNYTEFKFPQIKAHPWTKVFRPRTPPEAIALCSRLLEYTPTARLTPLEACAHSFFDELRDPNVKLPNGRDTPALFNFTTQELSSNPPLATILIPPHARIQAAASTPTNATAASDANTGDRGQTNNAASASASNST
Assay: GSK-3β human kinase inhibition, SPA
Type: biochemical
Details: read-out: GSK3b pIC50 (converted)
readout: IC50

Problem: Report IC50, nothing else, for this compound: CN(C)CCNCc1cc2cc(c1)Nc1nccc(n1)-c1cccc(c1)CNC(=O)[C@@H]1CCCN1C2
Result: 0.11 µM

Problem: Report IC50, nothing else, for this compound: COc1ccc2cc1CN(C)CCNC(=O)C1CCN(CC1)Cc1cc(cc(N3CCOCC3)c1)Nc1nccc-2n1
Result: 3.8 µM

Problem: Report IC50, nothing else, for this compound: O=C1NCc2ccc(cc2)-c2ccnc(n2)Nc2ccc(N3CCOCC3)c(c2)CN2C[C@H](O)C[C@@H]12
Result: > 10 µM

Problem: Report IC50, nothing else, for this compound: CC1(C)NCc2cc(ccc2N2CCOCC2)Nc2nccc(n2)-c2cccc(c2)OCCCNC1=O
Result: 0.417 µM

Problem: Report IC50, nothing else, for this compound: COc1ccc2cc1CNCCNC(=O)CN1CCN(CC1)Cc1cc(ccc1N1CCOCC1)Nc1nccc-2n1
Result: > 10 µM

Problem: Report IC50, nothing else, for this compound: COc1ccc2cc1CNCCNC(=O)[C@@H]1C[C@@H](O)CN1Cc1cc(ccc1N1CCOCC1)Nc1nccc-2n1
Result: > 10 µM

Problem: Report IC50, nothing else, for this compound: O=C1NCc2cccc(c2)-c2ccnc(n2)Nc2cc(CN3CCOCC3)cc(c2)CN2CCC[C@@H]12
Result: 0.0309 µM

Problem: Report IC50, nothing else, for this compound: COc1ccc2cc1CN(C)CCCNC(=O)[C@@H]1CCCN1Cc1cc(cc(N3CCOCC3)c1)Nc1nccc-2n1
Result: > 10 µM

Problem: Report IC50, nothing else, for this compound: CN1CCNC(=O)C2CCN(CC2)Cc2cc(Br)cc(c2)Nc2nccc(n2)-c2ccc(cc2)C1
Result: 2.75 µM

Problem: Report IC50, nothing else, for this compound: COc1ccc2cc1CN(C)CCNC(=O)CN1CCN(CC1)Cc1cc(cc(NC(C)C)c1)Nc1nccc-2n1
Result: > 10 µM

Problem: Report IC50, nothing else, for this compound: CN1CCC(NC(=O)c2ccc3cc2CN2CCC[C@H]2C(=O)NCc2cccc(c2)-c2ccnc(n2)N3)CC1
Result: 0.398 µM

Problem: Report IC50, nothing else, for this compound: O=C1NCc2cccc(c2)-c2ccnc(n2)Nc2ccc(cc2)CN2CCC[C@@H]12
Result: > 10 µM

Problem: Report IC50, nothing else, for this compound: CN1CCNC(=O)[C@@H]2CCCN2Cc2cc(cc(N3CCOCC3)c2)Nc2nccc(n2)-c2ccc(cc2)C1
Result: > 10 µM

Problem: Report IC50, nothing else, for this compound: COc1ccc2cc1CN(C)CCCNC(=O)C1CCN(CC1)Cc1cc(cc(N3CCOCC3)c1)Nc1nccc-2n1
Result: > 10 µM

Problem: Report IC50, nothing else, for this compound: O=C1NCCCOc2cccc(c2)-c2ccnc(n2)Nc2ccc(N3CCOCC3)c(c2)CN2C[C@H](O)C[C@@H]12
Result: 0.417 µM

Problem: Report IC50, nothing else, for this compound: CN1CCCNC(=O)C2CCN(CC2)Cc2cccc(c2)Nc2nccc(n2)-c2ccc(cc2)C1
Result: > 10 µM

Problem: Report IC50, nothing else, for this compound: O=C1NCCOc2cccc(c2)-c2ccnc(n2)Nc2ccc(N3CCOCC3)c(c2)CN2CCC1CC2
Result: 2.95 µM

Problem: Report IC50, nothing else, for this compound: O=C1NCc2cccc(c2)-c2ccnc(n2)Nc2cc(CNC3CCOCC3)cc(c2)CN2CCC[C@@H]12
Result: 0.112 µM

Problem: Report IC50, nothing else, for this compound: COc1cc2cc(c1)Nc1nccc(n1)-c1ccc(OC)c(c1)CN(C)CCCNC(=O)C1CCN(CC1)C2
Result: > 10 µM

Problem: Report IC50, nothing else, for this compound: CN1CCNC(=O)[C@H](CO)NCc2cccc(c2)Nc2nccc(n2)-c2ccc(cc2)C1
Result: 2.82 µM

Problem: Report IC50, nothing else, for this compound: O=C1NCCNCc2ccc(cc2)-c2ccnc(n2)Nc2ccc(N3CCOCC3)c(c2)CN2CCC[C@@H]12
Result: 6.61 µM

These data points were gathered from patent US8609836B2.
